- Tested on: P12-Ichikawa
- assayInfo: cell viability relative to DMSO control; higher = less cytotoxic
- conditionLabel: RPMI 5 mM glucose + 10% FBS; 48 h; 0.569 µM
testReadout: cell viability (%)
Give just the number in %; leave the unit off.

Examples with answers:
compound | cell viability, %
CC(C)(C)c1[nH]cnc1/C=c1\[nH]c(=O)/c(=C/c2ccccc2)[nH]c1=O | 5.98
C\C1=C(\C=C(C#N)/C(=O)N1)C2=C[N]3C=CN=C3C=C2 | 80
CCn1c(-c2nonc2N)nc2cnc(Oc3cccc(NC(=O)c4ccc(OCCN5CCOCC5)cc4)c3)cc21 | 98.5
CN(NC(=O)CC(=O)NN(C)C(=S)c1ccccc1)C(=S)c1ccccc1 | 2.71
O=C(c1ccc(Nc2nccc(-c3cc4ccccc4s3)n2)cc1)N1CCC(N2CCCC2)CC1 | 112

(Q) cell viability for CNC1CCC(N(Cc2cccc(-c3ccncc3)c2)C(=O)c2sc3c(F)ccc(F)c3c2Cl)CC1 (stereo not drawn) ?
(A) 108

(Q) Also check C[C@]1(c2nc3c(C(N)=O)cccc3[nH]2)CCCN1
(A) 77.7

(Q) Also check Cc1cc(C(C)(C)C)c(O)c(C)c1CC1=NCCN1
(A) 99.1

(Q) Also check CNC(=O)c1ccc(N2C(=S)N(c3ccc(C#N)c(C(F)(F)F)c3)C(=O)C23CCC3)cc1F
(A) 102

(Q) Also check N=C(NCCCCCCNC(=N)NC(=N)Nc1ccc(Cl)cc1)NC(=N)Nc1ccc(Cl)cc1
(A) 91.4

(Q) Also check CN(C)C1=CC=C(C=C1)C(C2=CC=C(C=C2)N(C)C)=C/3\C=C/C(/C=C3)=[N+](C)C
(A) 14.9

(Q) Also check C[C@@H]1[C@H](O)[C@@H](C)/C=C/C=C/C=C/C=C/C=C/C=C/C=C/[C@H](O[C@@H]2O[C@H](C)[C@@H](O)[C@H](N)[C@@H]2O)C[C@@H]2O[C@](O)(C[C@@H](O)C[C@@H](O)[C@H](O)CC[C@@H](O)C[C@@H](O)CC(=O)O[C@H]1C)C[C@H](O)[C@H]2C(=O)O
(A) 134

(Q) Also check CN1\C(=C(\O)C2=CC=CC=C2[S+]1([O-])=O)C(=O)NC3=NC=C(C)S3
(A) 84.8

----------
- System: P12-Ichikawa
- assayInfo: cell viability relative to DMSO control; higher = less cytotoxic
- conditionLabel: HPLM + 10% dialyzed FBS; 48 h; 0.000781 µM
Below: a set of entries, each annotated with reported cell viability.
Give just the number in %; leave the unit off.

Examples with answers:
compound | testReadout | valueMeasured
NC(=O)c1ccc(I)c([N+](=O)[O-])c1 | cell viability | 117
CNc1nccc(-c2cccnc2Oc2cc(C(=O)Nc3cccc(C(F)(F)F)c3)ccc2C)n1 | cell viability | 105
O=C(Nc1c(Cl)cncc1Cl)c1ccc(OC(F)F)c(OCC2CC2)c1 | cell viability | 101

Would you kindly look at the next entry?
(Q) cell viability for C[N]1C=C(C2=C1C=CC=C2)\C3=C(\C(=O)NC3=O)C4=C5CC(CN)CC[N]5C6=C4C=CC=C6 (centres undefined) ?
(A) 103

----------
- Tested on: P12-Ichikawa
- assayInfo: cell viability relative to DMSO control; higher = less cytotoxic
- conditionLabel: RPMI 5 mM glucose + 10% dialyzed FBS; 48 h; 1.71 µM
testReadout: cell viability (%)
Give just the number in %; leave the unit off.

compound | assayedTarget | unitOfMeasure | valueMeasured
COc1ccc(-c2nc(N3CCOCC3)c3sc(CN(C)c4ncc(C(=O)NO)cn4)cc3n2)cn1 | P12-Ichikawa | % | 8.07

Would you kindly look at the next entry?
(Q) GET /values?readout=cell viability&system=P12-Ichikawa&item= Cc1cc(C(C)(C)C)c(O)c(C)c1CC1=NCCN1
(A) 105

----------
- Tested on: P12-Ichikawa
- assayInfo: cell viability relative to DMSO control; higher = less cytotoxic
- conditionLabel: HPLM + 10% dialyzed FBS; 48 h; 0.19 µM
testReadout: cell viability (%)
Give just the number in %; leave the unit off.

Examples with answers:
molecule | assayedTarget | unitOfMeasure | cell viability
CCC(C)(Oc1ccc(C2(c3ccc(OC(C)(CC)C(=O)O)cc3)CCCCC2)cc1)C(=O)O (stereo unspecified) | P12-Ichikawa | % | 103
C[C@]12CC[C@@H]3c4ccc(O)cc4C[C@@H](CCCCCCCCC[S+]([O-])CCCC(F)(F)C(F)(F)F)[C@H]3[C@@H]1CC[C@@H]2O (stereo partly specified) | P12-Ichikawa | % | 117
CN(NC(=O)CC(=O)NN(C)C(=S)c1ccccc1)C(=S)c1ccccc1 | P12-Ichikawa | % | 31.4
CN1\C(=C(\O)C2=CC=CC=C2[S+]1([O-])=O)C(=O)NC3=NC=C(C)S3 | P12-Ichikawa | % | 100
Cn1cnc2c1c(=O)[nH]c(=O)n2C | P12-Ichikawa | % | 105
FC1=CC=C(SC/2=N/N3\C=N/C(=O)/C(=C3/C=C2)C4=C(Cl)C=CC=C4Cl)C(=C1)F | P12-Ichikawa | % | 102
NC/1=N/C2=C([NH]C=N2)C(=S)N1 | P12-Ichikawa | % | 121
CN(C)[C@H]\1[C@@H]2C[C@H]3C(=C(O)\[C@]2(O)C(=O)\C(=C1O)C(N)=O)/C(=O)C4=C(O)C=CC=C4[C@@]3(C)O | P12-Ichikawa | % | 116

(Q) cell viability for S=P(N1CC1)(N1CC1)N1CC1 ?
(A) 105

(Q) Also check C[S+]([O-])(=O)C1=CC=C(C=C1)C/2=C(/C(=O)OC2)C3=CC=CC=C3
(A) 126

(Q) Also check CN1C[C@H]2c3ccccc3Oc3ccc(Cl)cc3[C@@H]2C1
(A) 96.8

(Q) Also check O=C(c1ccc(Nc2nccc(-c3cc4ccccc4s3)n2)cc1)N1CCC(N2CCCC2)CC1
(A) 107

(Q) Also check COc1ccc(C(C)=O)c(O)c1
(A) 114

(Q) Also check FC(F)c1nc2ccccc2n1-c1nc(N2CCOCC2)nc(N2CCOCC2)n1
(A) 91.4

(Q) Also check Cc1cc2c(F)c(Oc3ncnn4cc(OC[C@@H](C)O)c(C)c34)ccc2[nH]1
(A) 106

(Q) Also check C[S+](=O)([O-])N1CCc2c(-c3cnc(N)nc3)nc(N3CCOCC3)nc21
(A) 119

----------
- Tested on: SEM cells
- assayInfo: cell viability relative to DMSO control; higher = less cytotoxic
- conditionLabel: RPMI 5 mM glucose + 10% dialyzed FBS; 48 h; 0.000781 µM
testReadout: cell viability (%)
Give just the number in %; leave the unit off.

molecule | assayedTarget | unitOfMeasure | cell viability
C=C(C)[C@H]1Cc2c(ccc3c2O[C@@H]2COc4cc(OC)c(OC)cc4[C@@H]2C3=O)O1 | SEM cells | % | 101
Nc1ncnc2c1c(-c1cnc3[nH]ccc3c1)nn2C1CCCC1 | SEM cells | % | 123
Cc1c(NC(=O)OC[C@@H]2COCCN2)cn2ncnc(Nc3ccc4c(cnn4Cc4cccc(F)c4)c3)c12 | SEM cells | % | 71.7
C[C@@H]1CC[C@H]2[C@@H](C)C(=O)O[C@@H]3O[C@@]4(C)CC[C@@H]1[C@]32OO4 | SEM cells | % | 132
COc1ccc(-c2nc(N3CCOCC3)c3sc(CN(C)c4ncc(C(=O)NO)cn4)cc3n2)cn1 | SEM cells | % | 97

(Q) cell viability for C#C[C@]1(O)CC[C@H]2[C@@H]3CCc4cc(O)ccc4[C@H]3CC[C@@]21C ?
(A) 93.7

(Q) Also check O=C(O[C@H]1C[C@H]2CC[C@@H](C1)[N+]21CCCC1)C(O)(c1ccccc1)c1ccccc1.[Cl-]
(A) 81

----------
Below: a set of entries, each annotated with reported cell viability.
- Tested on: NOMO1
- assayInfo: cell viability relative to DMSO control; higher = less cytotoxic
- conditionLabel: RPMI 5 mM glucose + 10% dialyzed FBS; 48 h; 0.0211 µM
State the result as a value with its unit after it.

Examples with answers:
compound | valueMeasured
Cc1ccc([S+](=O)([O-])N[C@@H](Cc2ccccc2)C(=O)CCl)cc1 | 94.6%
O=C(O)C1=NC(C(=O)O)CC(/C=C/N2c3cc(O)c(OC4OC(CO)C(O)C(O)C4O)cc3CC2C(=O)O)=C1 (stereo not given) | 113%
Cc1cc2c(F)c(Oc3ncnn4cc(OC[C@@H](C)O)c(C)c34)ccc2[nH]1 | 92%
O=C(O[C@H]1C[C@H]2CC[C@@H](C1)[N+]21CCCC1)C(O)(c1ccccc1)c1ccccc1.[Cl-] | 109%

Would you kindly look at the next entry?
(Q) GET /values?readout=cell viability&system=NOMO1&item= CCOC(=O)C/1=C(O)/C(=O)N(CC2=CC=CC=C2)C1
(A) 109%

----------
- Test system: P12-Ichikawa
- assayInfo: cell viability relative to DMSO control; higher = less cytotoxic
- conditionLabel: RPMI 5 mM glucose + 10% FBS; 48 h; 0.0211 µM
testReadout: cell viability (%)
Give just the number in %; leave the unit off.

Examples with answers:
molecule | valueMeasured
C[C@]12CCC(=O)C=C1CC[C@@H]1[C@@H]2CC[C@@]2(C)[C@H]1CC[C@]2(C)O | 79.6
C[N]1C=C(C2=C1C=CC=C2)\C3=C(\C(=O)NC3=O)C4=C5CC(CN)CC[N]5C6=C4C=CC=C6 (centres undefined) | 111
CCOC(=O)C/1=C(O)/C(=O)N(CC2=CC=CC=C2)C1 | 119

(Q) cell viability for CSCC[C@@H](NC(=O)[C@@H](Cc1ccccc1)NC(=O)CNC(=O)CNC(=O)[C@@H](N)Cc1ccc(O)cc1)C(=O)O ?
(A) 12.6

(Q) Also check O=C(O)C1=NC(C(=O)O)CC(/C=C/N2c3cc(O)c(OC4OC(CO)C(O)C(O)C4O)cc3CC2C(=O)O)=C1 (centres undefined)
(A) 99.1

(Q) Also check CNC(=O)c1ccc(N2C(=S)N(c3ccc(C#N)c(C(F)(F)F)c3)C(=O)C23CCC3)cc1F
(A) 13.1

(Q) Also check Cc1ccc([S+](=O)([O-])N[C@@H](Cc2ccccc2)C(=O)CCl)cc1
(A) 104

(Q) Also check CNC1CCC(N(Cc2cccc(-c3ccncc3)c2)C(=O)c2sc3c(F)ccc(F)c3c2Cl)CC1 (centres undefined)
(A) 104

(Q) Also check COc1cc2ncnc(Nc3ccc(F)c(Cl)c3)c2cc1NC(=O)/C=C/CN1CCCCC1
(A) 101

(Q) Also check C[S+]([O-])(=O)C1=CC=C(C=C1)C/2=C(/C(=O)OC2)C3=CC=CC=C3
(A) 115

(Q) Also check C/C=C1\C2C=C(C)CC1(N)c1ccc(=O)[nH]c1C2 (centres undefined)
(A) 106

(Q) Also check C=C(C)[C@H]1Cc2c(ccc3c2O[C@@H]2COc4cc(OC)c(OC)cc4[C@@H]2C3=O)O1
(A) 106

(Q) Also check C[C@@]12C[C@@]3(O)O[C@@H](O1)[C@]1(COC(=O)c4ccccc4)[C@H]3C[C@@]12O[C@@H]1O[C@H](CO)[C@@H](O)[C@H](O)[C@H]1O
(A) 111
